Recorded SP, one value per entry.
# System: Rattus norvegicus
# experimentNotes: Starting systolic blood pressure at dose of 50 mg/kg in rat
# Format: functional, Artery
Report only the number, with the unit mmHg understood.

- O=C(CCCN1CCC(NC(=S)NC(=O)c2ccccc2)CC1)c1ccccc1: 186
- O=C(NC(=O)c1ccccc1)NC1CCN(CC(O)c2ccccc2)CC1 (stereo unspecified): 182
- COc1ccc(C(=O)NC(=O)NC2CCN(CC(O)COc3ccccc3OC)CC2)cc1 (stereo unspecified): 162
- CCN(C(=O)Nc1ccccc1)C1CCN(CCc2c[nH]c3ccccc23)CC1: 170
- N=C(NC(=O)c1ccccc1)NC1CCN(CCCC(=O)c2ccccc2)CC1: 188

# input for lookup
Need SP, item N/C(S)=N/C1CCN(CCc2c[nH]c3ccccc23)CC1
189

---

# System: Rattus norvegicus
# experimentNotes: The percent fall in systolic blood pressure at 1.5 / 4 h after peroral administration of 50 mg/kg in DOCA/saline hypertensive rats at 2 hr
# Type: functional, Artery
# testContext: route oral
Recorded Fall, one value per entry.
Report only the number, with the unit % understood.

• O=C(NC1CCCCC1)NC1CCN(CCc2c[nH]c3ccccc23)CC1 = 15
• O=C(NC1CCN(CCc2c[nH]c3ccccc23)CC1)c1ccccc1 = 41
• OC(CN1CCC(/N=C(\S)Nc2ccccc2)CC1)C1COc2ccccc2O1 (stereo not given) = 26
• O=C(NC(=O)c1cccs1)NC1CCN(CCCC(=O)c2ccc(F)cc2)CC1 = 49
• O=C(Nc1ccccc1C(F)(F)F)NC1CCN(CCCC(=O)c2ccccc2)CC1 = 20

Need Fall, item COc1ccc(NC(=O)NC2CCN(CC(O)C3COc4ccccc4O3)CC2)cc1 (stereo not given)
17

Need Fall, item O=C(NC(=O)c1ccccc1)NC1CCN(CCc2c[nH]c3ccccc23)CC1
49

Need Fall, item O=C(Nc1ccccc1)NC1CCN(CCCC(=O)c2ccccc2)CC1
31

Need Fall, item Cn1cc(CCN2CCC(NC(=O)NC(=O)c3ccccc3)CC2)c2ccccc21
26

Need Fall, item COc1ccccc1OCC(O)CN1CCC(NC(=O)Nc2ccccc2)CC1 (stereo not given)
27

---

# Test system: Rattus norvegicus
# experimentNotes: Starting systolic blood pressure at dose of 50 mg/kg in rat
# Assay type: functional, Artery
Recorded SP, one value per entry.
Report only the number, with the unit mmHg understood.

Solved entries:
- O=C(NC(=O)c1ccccc1)NC1CCN(CC(=O)c2c[nH]c3ccccc23)CC1: 178
- O=C(NC(=O)c1ccccc1)NC1CCN(CC(O)COc2cccc3ccccc23)CC1 (stereo not given): 185
- O=C(NC(=O)c1ccccc1)NC1CCN(CCc2ccccc2)CC1: 180
- COc1ccc(C(=O)NC(=O)NC2CCN(CC(O)C3COc4ccccc4O3)CC2)cc1 (stereo not given): 165
- O=C(NC(=O)c1cccs1)NC1CCN(CCCC(=O)c2ccccc2)CC1: 190

Need SP, item O=C(NC(=O)C1CCCCC1)NC1CCN(CCc2c[nH]c3ccccc23)CC1
173

Need SP, item O=C(Nc1ccccc1)NC1CCN(CC(O)COc2cccc3ccccc23)CC1 (stereo not given)
170

Need SP, item CCCCNC(=O)NC1CCN(CCc2c[nH]c3ccccc23)CC1
172

Need SP, item COc1ccccc1OCC(O)CN1CCC(NC(=O)Nc2ccccc2)CC1 (stereo not given)
212

Need SP, item COc1ccccc1OCC(O)CN1CCC(NC(=O)NC(=O)c2ccccc2)CC1 (stereo not given)
189
